Reference for the values: patent US12357680B2

# experimentalSystem: MLL1 Complex (Homo sapiens (Human), UniProt Q03164)
# assayProcedure: Methyltransferase panel, 10-dose IC50 mode
# measurementConditions: Substrate: Nucleosomes; 1 μM SAM; read-out: Control IC50*
assayReadout: IC50 (µM)
Answer format: numeric, µM implied, no suffix.

Bench note: what IC50 did Nc1ncnc2c1ncn2[C@@H]1O[C@H](CSCC[C@H](N)C(=O)O)[C@@H](O)[C@H]1O [SAH, S-(5′-Adenosyl)-L-homocysteine] show? 1.17

====

# experimentalSystem: SETD2 (Homo sapiens (Human))
# Sequence (Q9BYW2 whole entry): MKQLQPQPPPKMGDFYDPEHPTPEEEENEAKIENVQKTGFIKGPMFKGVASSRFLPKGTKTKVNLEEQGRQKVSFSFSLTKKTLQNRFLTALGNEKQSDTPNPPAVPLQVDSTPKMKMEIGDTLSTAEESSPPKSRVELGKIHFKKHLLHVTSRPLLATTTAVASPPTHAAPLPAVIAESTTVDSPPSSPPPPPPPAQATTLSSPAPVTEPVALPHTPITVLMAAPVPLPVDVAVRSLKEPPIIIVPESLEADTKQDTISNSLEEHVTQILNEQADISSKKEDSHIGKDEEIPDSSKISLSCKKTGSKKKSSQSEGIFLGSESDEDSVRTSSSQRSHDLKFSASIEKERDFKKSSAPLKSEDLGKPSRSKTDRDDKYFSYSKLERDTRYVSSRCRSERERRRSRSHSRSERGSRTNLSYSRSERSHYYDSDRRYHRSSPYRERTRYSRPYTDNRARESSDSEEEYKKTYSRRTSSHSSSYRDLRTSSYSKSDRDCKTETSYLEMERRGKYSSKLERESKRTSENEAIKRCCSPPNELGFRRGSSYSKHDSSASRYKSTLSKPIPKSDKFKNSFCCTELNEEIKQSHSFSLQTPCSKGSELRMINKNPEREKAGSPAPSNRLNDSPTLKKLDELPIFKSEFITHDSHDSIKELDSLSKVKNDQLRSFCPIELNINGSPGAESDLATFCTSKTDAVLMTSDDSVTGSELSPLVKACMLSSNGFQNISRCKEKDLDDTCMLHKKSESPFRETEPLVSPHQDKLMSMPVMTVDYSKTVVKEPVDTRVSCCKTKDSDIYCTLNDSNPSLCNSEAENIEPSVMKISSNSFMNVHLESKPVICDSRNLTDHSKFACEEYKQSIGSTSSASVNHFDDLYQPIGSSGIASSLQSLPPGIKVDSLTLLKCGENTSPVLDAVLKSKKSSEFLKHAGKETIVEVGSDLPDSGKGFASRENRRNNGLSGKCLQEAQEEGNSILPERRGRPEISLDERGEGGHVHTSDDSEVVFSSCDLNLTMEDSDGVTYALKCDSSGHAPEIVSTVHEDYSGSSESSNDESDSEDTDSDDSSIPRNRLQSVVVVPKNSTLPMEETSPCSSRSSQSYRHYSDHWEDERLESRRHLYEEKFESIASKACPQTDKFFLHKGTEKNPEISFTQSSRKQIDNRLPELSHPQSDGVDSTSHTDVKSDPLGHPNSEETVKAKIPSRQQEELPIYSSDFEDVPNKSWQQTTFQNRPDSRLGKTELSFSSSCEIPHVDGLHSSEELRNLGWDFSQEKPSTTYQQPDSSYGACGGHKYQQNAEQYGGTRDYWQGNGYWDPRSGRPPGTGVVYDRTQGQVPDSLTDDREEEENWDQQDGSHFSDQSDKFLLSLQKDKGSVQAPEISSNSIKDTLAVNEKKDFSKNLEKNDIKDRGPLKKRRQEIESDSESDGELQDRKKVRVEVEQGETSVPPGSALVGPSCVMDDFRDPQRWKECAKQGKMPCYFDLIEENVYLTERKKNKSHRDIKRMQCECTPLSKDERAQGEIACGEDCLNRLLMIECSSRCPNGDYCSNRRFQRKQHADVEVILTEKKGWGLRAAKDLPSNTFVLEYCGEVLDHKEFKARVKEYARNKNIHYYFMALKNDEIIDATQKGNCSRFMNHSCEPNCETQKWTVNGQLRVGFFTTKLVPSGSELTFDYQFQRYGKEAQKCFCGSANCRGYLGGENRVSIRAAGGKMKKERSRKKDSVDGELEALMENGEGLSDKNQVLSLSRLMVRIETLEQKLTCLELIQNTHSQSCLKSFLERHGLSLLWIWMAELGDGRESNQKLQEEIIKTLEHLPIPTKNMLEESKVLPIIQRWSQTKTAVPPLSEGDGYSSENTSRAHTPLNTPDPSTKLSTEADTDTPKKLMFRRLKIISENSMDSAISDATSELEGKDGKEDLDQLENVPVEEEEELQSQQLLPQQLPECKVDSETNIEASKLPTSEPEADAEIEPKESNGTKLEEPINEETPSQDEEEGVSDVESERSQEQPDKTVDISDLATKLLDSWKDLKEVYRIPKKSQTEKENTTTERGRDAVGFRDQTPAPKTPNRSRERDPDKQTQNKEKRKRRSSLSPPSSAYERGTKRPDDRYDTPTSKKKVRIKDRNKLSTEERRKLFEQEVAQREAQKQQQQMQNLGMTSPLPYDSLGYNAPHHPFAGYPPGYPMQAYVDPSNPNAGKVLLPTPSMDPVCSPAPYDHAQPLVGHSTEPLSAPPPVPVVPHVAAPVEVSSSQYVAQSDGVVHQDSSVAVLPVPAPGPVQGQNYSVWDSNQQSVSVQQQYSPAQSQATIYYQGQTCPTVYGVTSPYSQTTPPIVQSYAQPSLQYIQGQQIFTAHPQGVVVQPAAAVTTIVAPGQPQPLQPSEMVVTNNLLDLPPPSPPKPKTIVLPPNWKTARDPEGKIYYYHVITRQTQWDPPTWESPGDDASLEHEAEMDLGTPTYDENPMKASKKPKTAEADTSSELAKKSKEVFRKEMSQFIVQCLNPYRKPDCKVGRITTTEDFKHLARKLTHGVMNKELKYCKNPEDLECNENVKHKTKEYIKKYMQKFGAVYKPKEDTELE
assayReadout: IC50 (µM)
Answer format: numeric, µM implied, no suffix.

Bench note: what IC50 did Nc1ncnc2c1ncn2[C@@H]1O[C@H](CSCC[C@H](N)C(=O)O)[C@@H](O)[C@H]1O show? 4.08

====

# experimentalSystem: KMT9 (Homo sapiens (Human))
# assayProcedure: Methylation assay to test KMT9-inhibition ([3H]SAM, filter binding, scintillation)
# Type: biochemical
# measurementConditions: ETF1 or histone H4 substrate
assayReadout: IC50

Bench note: what IC50 did CNc1ncnc2c1ccn2[C@@H]1C[C@H](CN(CCCNCCc2ccccc2)CC[C@H](N)C(=O)O)[C@@H](O)[C@H]1O [Compound 72b] show? < 100 nM

====

assayReadout: pIC50
Kindly note that pIC50 refers to -log10 of the concentration in mol/L and answer with the value alone.

Record CN1C(=O)[C@@]23C[C@]4([C@]56C[C@@]78SS[C@@](CO)(C(=O)N7[C@H]5Nc5ccccc56)N(C)C8=O)c5ccccc5N[C@@H]4N2C(=O)[C@]1(CO)SS3 [Chaetocin] : what is its pIC50 with ASH1L (Homo sapiens (Human))? 7.56

====

# experimentalSystem: SET7/9 (Homo sapiens (Human), UniProt Q8WTS6)
# Sequence (Q8WTS6 whole entry): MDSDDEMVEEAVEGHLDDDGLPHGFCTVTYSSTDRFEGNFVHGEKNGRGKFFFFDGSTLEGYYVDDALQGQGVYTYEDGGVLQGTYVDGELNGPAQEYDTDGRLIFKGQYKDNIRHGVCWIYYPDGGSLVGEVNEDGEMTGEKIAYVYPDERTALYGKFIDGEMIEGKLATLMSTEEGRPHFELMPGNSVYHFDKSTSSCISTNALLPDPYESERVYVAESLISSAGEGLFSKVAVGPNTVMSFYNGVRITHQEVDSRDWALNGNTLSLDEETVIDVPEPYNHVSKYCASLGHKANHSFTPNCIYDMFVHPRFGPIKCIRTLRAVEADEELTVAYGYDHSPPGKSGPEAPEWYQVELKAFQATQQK
# assayProcedure: Methyltransferase panel, 10-dose IC50 mode
# measurementConditions: Substrate: Core Histone; 1 μM SAM; read-out: Control IC50*
assayReadout: pIC50
Kindly note that pIC50 refers to -log10 of the concentration in mol/L and answer with the value alone.

Record Nc1ncnc2c1ncn2[C@@H]1O[C@H](CSCC[C@H](N)C(=O)O)[C@@H](O)[C@H]1O : what is its pIC50 with SET7/9 (Homo sapiens (Human), UniProt Q8WTS6)? 3.55

====

# experimentalSystem: DNMT3b/3L (Homo sapiens (Human))
# assayProcedure: Methyltransferase panel, 10-dose IC50 mode
# measurementConditions: Substrate: Lambda DNA; 1 μM SAM; read-out: Control IC50*
# Method: Compound 72b was further tested against a plurality of methyltransferases as described in the following. […] Reactions were carried out at 1 μM SAM. Curve fits were performed where the enzyme activities at the highest concentration of compounds were less than 65%. […] Compound 72b is referred to as KMI9542321 in the table below.
assayReadout: IC50 (nM)
Answer format: numeric, nM implied, no suffix.

Bench note: what IC50 did Nc1ncnc2c1ncn2[C@@H]1O[C@H](CSCC[C@H](N)C(=O)O)[C@@H](O)[C@H]1O [SAH, S-(5′-Adenosyl)-L-homocysteine] show? 32.1

====

# experimentalSystem: SET8 (Homo sapiens (Human))
assayReadout: IC50 (nM)
Answer format: numeric, nM implied, no suffix.

Bench note: what IC50 did Cc1ccc(NC2=CC(=O)c3sc(C)nc3C2=O)cc1 show? 775

====

# experimentalSystem: recombinant KMT9 (C21orf127/TRMT112) (Homo sapiens (Human))
# assayProcedure: Histone H4 methylation assay with SAM[3H], autoradiography
# Assay type: biochemical
# measurementConditions: histone H4, SAM[3H]
assayReadout: HMT activity of KMT9 (histone H4 methylation)

- chemSmiles: "CC(C)N(C[C@H]1O[C@@H](n2cnc3c(N)ncnc32)[C@H](O)[C@@H]1O)[C@H]1C[C@@H](CCc2nc3cc(C(C)(C)C)ccc3[nH]2)C1"
  experimentalSystem: "recombinant KMT9 (C21orf127/TRMT112) (Homo sapiens (Human))"
  value: "do not inhibit"
- chemSmiles: "CC(C)N(CCCNC(=O)Nc1ccc(C(C)(C)C)cc1)C[C@H]1O[C@@H](n2ccc3c(N)ncnc32)[C@H](O)[C@@H]1O"
  experimentalSystem: "recombinant KMT9 (C21orf127/TRMT112) (Homo sapiens (Human))"
  value: "do not inhibit"
- chemSmiles: "CC(C)N(CCCNC(=O)Nc1ccc(C(C)(C)C)cc1)C[C@H]1O[C@@H](n2cc(Br)c3c(N)ncnc32)[C@H](O)[C@@H]1O"
  experimentalSystem: "recombinant KMT9 (C21orf127/TRMT112) (Homo sapiens (Human))"
  value: "do not inhibit"

====

# experimentalSystem: SET1b Complex (Homo sapiens (Human), UniProt Q9UPS6)
# assayProcedure: Methyltransferase panel, 10-dose IC50 mode
# measurementConditions: Substrate: Core Histone; 1 μM SAM; read-out: Control IC50*
assayReadout: IC50 (µM)
Answer format: numeric, µM implied, no suffix.

Bench note: what IC50 did Nc1ncnc2c1ncn2[C@@H]1O[C@H](CSCC[C@H](N)C(=O)O)[C@@H](O)[C@H]1O [SAH, S-(5′-Adenosyl)-L-homocysteine] show? 5.27

====

# experimentalSystem: MLL3 Complex (Homo sapiens (Human))
# assayProcedure: Methyltransferase panel, 10-dose IC50 mode
# measurementConditions: Substrate: Core Histone; 1 μM SAM; read-out: Control IC50*
assayReadout: IC50 (µM)
Answer format: numeric, µM implied, no suffix.

Bench note: what IC50 did Nc1ncnc2c1ncn2[C@@H]1O[C@H](CSCC[C@H](N)C(=O)O)[C@@H](O)[C@H]1O show? 25.4

====

# assayProcedure: Methyltransferase panel, 10-dose IC50 mode
# Assay type: biochemical
# measurementConditions: Substrate: Core Histone; 1 μM SAM; read-out: Control IC50*
assayReadout: pIC50
Kindly note that pIC50 refers to -log10 of the concentration in mol/L and answer with the value alone.

Bench note: what pIC50 did Nc1ncnc2c1ncn2[C@@H]1O[C@H](CSCC[C@H](N)C(=O)O)[C@@H](O)[C@H]1O show? 4.58

====

assayReadout: IC50 (µM)
Answer format: numeric, µM implied, no suffix.

Record Nc1ncnc2c1ncn2[C@@H]1O[C@H](CSCC[C@H](N)C(=O)O)[C@@H](O)[C@H]1O : what is its IC50 with NRMT1 (Homo sapiens (Human), UniProt Q9BV86)? 1.07

====

assayReadout: Kd

Record CNc1ncnc2c1ccn2[C@@H]1C[C@H](CN(CCCNCCc2ccccc2)CC[C@H](N)C(=O)O)[C@@H](O)[C@H]1O [Compound 72b] : what is its Kd with KMT9 (Homo sapiens (Human), UniProt Q9Y5N5)? < 100 nM

====

# experimentalSystem: PRDM9 (Homo sapiens (Human), UniProt Q9NQV7)
assayReadout: pIC50
Kindly note that pIC50 refers to -log10 of the concentration in mol/L and answer with the value alone.

Bench note: what pIC50 did CN1C(=O)[C@@]23C[C@]4([C@]56C[C@@]78SS[C@@](CO)(C(=O)N7[C@H]5Nc5ccccc56)N(C)C8=O)c5ccccc5N[C@@H]4N2C(=O)[C@]1(CO)SS3 show? 6.45

====

# experimentalSystem: DNMT3b (Homo sapiens (Human))
assayReadout: IC50 (nM)
Answer format: numeric, nM implied, no suffix.

Bench note: what IC50 did Nc1ncnc2c1ncn2[C@@H]1O[C@H](CSCC[C@H](N)C(=O)O)[C@@H](O)[C@H]1O show? 35.2

====

# experimentalSystem: SUV39H2 (Homo sapiens (Human), UniProt Q9H5I1)
# Sequence (Q9H5I1 whole entry): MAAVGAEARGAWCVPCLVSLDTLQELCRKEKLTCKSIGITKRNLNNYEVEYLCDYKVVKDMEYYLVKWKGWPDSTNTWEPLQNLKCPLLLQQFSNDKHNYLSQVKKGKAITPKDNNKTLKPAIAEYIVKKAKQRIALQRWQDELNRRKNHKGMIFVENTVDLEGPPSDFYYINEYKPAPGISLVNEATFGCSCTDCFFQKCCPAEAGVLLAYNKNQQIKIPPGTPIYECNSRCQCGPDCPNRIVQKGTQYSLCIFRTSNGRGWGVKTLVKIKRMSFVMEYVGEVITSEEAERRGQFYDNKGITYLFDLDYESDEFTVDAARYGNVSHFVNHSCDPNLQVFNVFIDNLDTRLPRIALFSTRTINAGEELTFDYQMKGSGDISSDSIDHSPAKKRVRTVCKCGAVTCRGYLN
# assayProcedure: Methyltransferase panel, 10-dose IC50 mode
# Type: biochemical
# measurementConditions: Substrate: Histone H3; 1 μM SAM; read-out: Control IC50*
assayReadout: pIC50
Kindly note that pIC50 refers to -log10 of the concentration in mol/L and answer with the value alone.

Bench note: what pIC50 did Nc1ncnc2c1ncn2[C@@H]1O[C@H](CSCC[C@H](N)C(=O)O)[C@@H](O)[C@H]1O show? 3.99

====

# experimentalSystem: SMYD3 (Homo sapiens (Human), UniProt Q9H7B4)
# Sequence (Q9H7B4 whole entry): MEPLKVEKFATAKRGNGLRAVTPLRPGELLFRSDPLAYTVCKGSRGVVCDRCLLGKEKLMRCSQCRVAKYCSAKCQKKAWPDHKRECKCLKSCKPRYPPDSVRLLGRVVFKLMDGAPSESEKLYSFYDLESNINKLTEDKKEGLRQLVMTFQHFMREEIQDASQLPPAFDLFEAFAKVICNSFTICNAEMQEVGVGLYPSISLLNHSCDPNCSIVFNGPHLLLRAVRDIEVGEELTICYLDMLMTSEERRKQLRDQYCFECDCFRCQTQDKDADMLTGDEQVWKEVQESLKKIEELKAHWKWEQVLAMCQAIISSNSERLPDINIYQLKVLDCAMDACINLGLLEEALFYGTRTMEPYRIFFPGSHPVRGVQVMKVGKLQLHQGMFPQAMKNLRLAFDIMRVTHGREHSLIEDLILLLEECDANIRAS
# assayProcedure: Methyltransferase panel, 10-dose IC50 mode
# Format: biochemical
# measurementConditions: Substrate: MEKK2; 1 μM SAM; read-out: Control IC50*
assayReadout: pIC50
Kindly note that pIC50 refers to -log10 of the concentration in mol/L and answer with the value alone.

Bench note: what pIC50 did Nc1ncnc2c1ncn2[C@@H]1O[C@H](CSCC[C@H](N)C(=O)O)[C@@H](O)[C@H]1O show? 4.89

====

# experimentalSystem: DNMT3a (Homo sapiens (Human), UniProt Q9Y6K1)
# Sequence (Q9Y6K1 whole entry, looked up, species assumed): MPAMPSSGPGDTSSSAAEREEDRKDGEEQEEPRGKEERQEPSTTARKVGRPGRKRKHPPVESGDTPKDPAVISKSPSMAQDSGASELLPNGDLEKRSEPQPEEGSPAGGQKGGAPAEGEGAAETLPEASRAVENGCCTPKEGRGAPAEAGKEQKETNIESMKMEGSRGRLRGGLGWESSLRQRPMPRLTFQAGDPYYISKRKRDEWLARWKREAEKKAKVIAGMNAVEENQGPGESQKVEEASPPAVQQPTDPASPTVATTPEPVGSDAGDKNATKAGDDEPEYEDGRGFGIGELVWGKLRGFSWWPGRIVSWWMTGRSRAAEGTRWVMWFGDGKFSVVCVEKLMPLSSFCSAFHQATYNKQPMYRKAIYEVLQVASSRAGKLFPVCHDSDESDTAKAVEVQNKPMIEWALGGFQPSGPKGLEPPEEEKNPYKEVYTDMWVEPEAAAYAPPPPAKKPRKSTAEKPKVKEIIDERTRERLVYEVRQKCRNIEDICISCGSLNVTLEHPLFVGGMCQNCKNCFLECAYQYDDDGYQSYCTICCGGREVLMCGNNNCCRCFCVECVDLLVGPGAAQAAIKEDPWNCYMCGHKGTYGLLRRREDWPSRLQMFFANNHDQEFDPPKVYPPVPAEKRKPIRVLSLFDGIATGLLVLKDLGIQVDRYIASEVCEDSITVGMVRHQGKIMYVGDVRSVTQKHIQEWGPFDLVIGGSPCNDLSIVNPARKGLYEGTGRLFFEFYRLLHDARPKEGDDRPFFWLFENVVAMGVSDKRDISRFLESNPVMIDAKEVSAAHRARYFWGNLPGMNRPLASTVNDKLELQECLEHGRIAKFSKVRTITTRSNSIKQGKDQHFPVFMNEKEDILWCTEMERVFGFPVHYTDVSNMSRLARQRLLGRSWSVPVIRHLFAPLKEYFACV
# assayProcedure: Methyltransferase panel, 10-dose IC50 mode
# Assay type: biochemical
# measurementConditions: Substrate: Lambda DNA; 1 μM SAM; read-out: Control IC50*
assayReadout: IC50 (nM)
Answer format: numeric, nM implied, no suffix.

Bench note: what IC50 did Nc1ncnc2c1ncn2[C@@H]1O[C@H](CSCC[C@H](N)C(=O)O)[C@@H](O)[C@H]1O show? 329
